Literature survey of IC50 (system: PIK3CA (human) (UniProt P42336)).

Completed entries (count: 2):
CNC(=O)Nc1nc2ccc(-c3nn(Cc4cc5cccc(C)c5c(=O)n4-c4ccccc4C)c4ncnc(N)c34)cc2s1    < 100 nM
Cc1nc2ccc(-c3ccc4c(c3)CN(C(=O)N3CCCCCC3c3ccccc3)CCO4)cc2[nH]1 (stereo not drawn)    500 to 1000 nM

### Prompt Tell me IC50 of Cc1cccc2cc([C@H](C)Nc3nc(N)ncc3C(N)=O)n(C3CC3)c(=O)c12 when tested on PIK3CA (human) (UniProt P42336).
### Response > 10000 nM

### Prompt Tell me IC50 of C[C@H](NC(=O)c1c(N)nn2cccnc12)c1cc2cccc(Cl)c2c(=O)n1C1CC1 when tested on PIK3CA (human) (UniProt P42336).
### Response 100 to 1000 nM

### Prompt Tell me IC50 of Nc1nn2cccnc2c1C(=O)NCc1cc2cccc(Cl)c2c(=O)n1-c1ccccc1 when tested on PIK3CA (human) (UniProt P42336).
### Response > 10000 nM

### Prompt Tell me IC50 of CN1CCN(C(=O)Nc2cccc(-c3cnc4c(N5CCOCC5)nc(-c5cnc(N)nc5)nc4c3)c2)CC1 when tested on PIK3CA (human) (UniProt P42336).
### Response < 50 nM

### Prompt Tell me IC50 of NS(=O)(=O)c1cncc(-c2ccc3ncc(-c4ccncc4)nc3c2)c1 when tested on PIK3CA (human) (UniProt P42336).
### Response 200 nM

### Prompt Tell me IC50 of COc1ncc(-c2cnc3[nH]cc(C(=O)c4c(F)ccc(NS(=O)(=O)c5ccccn5)c4F)c3c2)cn1 when tested on PIK3CA (human) (UniProt P42336).
### Response ≤ 10000 nM

### Prompt Tell me IC50 of Cn1cc(/C=C2\Oc3cccc(O)c3C2=O)c2c(N3CC4CCC(C3)O4)ccnc21 when tested on PIK3CA (human) (UniProt P42336).
### Response 104 nM

* * *

Literature survey of pIC50 (system: PIK3CA (human) (UniProt P42336)).
pIC50: −log10 of the molar value.

Completed entries (count: 3):
Nc1ncc(-c2nc(N3CCOCC3)c3nc(-c4cccc(NS(=O)(=O)CCCF)c4F)ccc3n2)cn1    7.00 to 9.00
Cc1nc2ccc(-c3ccc4c(c3)CN(C(=O)N(Cc3ccccc3)C(C)C)CCO4)cc2[nH]1    5.52 to 6.00
C[C@H](Nc1ncnc2[nH]cnc12)c1cc2cccc(C(F)(F)F)c2c(=O)n1-c1ccccc1    5.00 to 6.00

Switching to the query record.
### Prompt Tell me pIC50 of Cn1cc(/C=C2\Oc3cccc(O)c3C2=O)c2c(N3CCC(N)CC3)ccnc21 when tested on PIK3CA (human) (UniProt P42336).
### Response 6.92

* * *

Literature survey of IC50 (system: PIK3CA (human) (UniProt P42336)).

Completed entries (count: 2):
COc1cc(-c2cccc3cc([C@H](C)NC(=O)c4c(N)nn5ccc(C)nc45)n(-c4ccccc4)c(=O)c23)ccn1    1 to 10 µM
C[C@H](Nc1ncnc2cccnc12)c1cc2cccc(Cl)c2c(C(=O)N2CCOC[C@H]2C)n1    > 10 µM

Switching to the query record.
### Prompt Tell me IC50 of O=c1cc(Oc2cccc(NCC3CCN(Cc4ccccc4)CC3)c2)c2ccccc2[nH]1 when tested on PIK3CA (human) (UniProt P42336).
### Response 9.54 µM
